Values from the supplement of paper PMC7411054

Test system: WPMY1-CANX-COX4
Assay: phenotypically active (imaging signature differs from DMSO and reproducible) at any of 0.3-9 uM (binary (1 = active, 0 = inactive)); higher = active
Details: treatment time: 24 h
VALUE_TYPE: phenotypically active
The answer should be a number; do not append a unit.

| COMPOUND | STUDY_TARGET | phenotypically active |
| --- | --- | --- |
| c1ccc(-c2cnn3cc(-c4ccc(OCCN5CCOCC5)cc4)cnc23)cc1 | WPMY1-CANX-COX4 | 0 |

Exam item: Give the measured phenotypically active for CC(C)n1nc(-c2cc3cc(O)ccc3[nH]2)c2c(N)ncnc21
Marked response: 1

Exam item: Give me measured phenotypically active, please, for this compound: O=C(CCCCCCC(=O)Nc1ccccc1)NO
Marked response: 1

Exam item: Consider the compound COc1cc2c(NC3CCN(C(C)C)CC3)nc(C3CCCCC3)nc2cc1OCCCN1CCCC1 . State its measured phenotypically active.
Marked response: 1

Exam item: Retrieve phenotypically active measured for CN1C(=O)CC[C@H]1c1cccnc1 [(-)-Cotinine] and print it.
Marked response: 0

Exam item: Return reported phenotypically active. Input compound: Cc1c(F)cc(C(=O)NC2CC2)cc1-c1ccc(C(=O)NCC(C)(C)C)cn1
Marked response: 0
